Tested on: WiDr cells
Test: In vitro PpIX formation in cancer cells
Type: cell-based
Details: WiDr cells; 4 hours incubation
Counter-ions that a name gives are not always drawn.
This listing pairs compounds with measured Compound concentration for max PpIX formation.
parameter.measured: Compound concentration for max PpIX formation (mM)

[
  {
    "compound": "CCCCCCOC(=O)CCC(=O)CN.Cl [HAL, 5-ALA hexyl ester hydrochloride, reference compound]",
    "value.reported": 0.1
  },
  {
    "compound": "NCC(=O)CCC(=O)OCCCCCCCCCC(=O)O [Compound 12, hydrochloride]",
    "value.reported": 0.05
  },
  {
    "compound": "NCC(=O)CCC(=O)OCCCC(=O)O [Compound 5, hydrochloride]",
    "value.reported": 1
  }
]

###

Tested on: WiDr cells
Test: In vitro PpIX formation in cancer cells
Format: cell-based
Description: These untreated cells served as a control. After treatment with the compounds of the invention and reference compounds as described above, the cells were washed twice with PBS and scraped off the substrate with a Costar cell scraper into a solution of 1M HClO4 in 50% methanol. Cell debris was removed by centrifugation. PpIX was quantitatively extracted from the cells with this procedure. The PpIX content in each sample was determined fluorometrically using a Perkin Elmer LS50B spectrofluorimeter. […]
Structures can show the parent of a compound that is named as a salt.
parameter.measured: Compound concentration for max PpIX formation (mM)

[
  {
    "compound": "NCC(=O)CCC(=O)OCCCCCC(=O)O [Compound 9, hydrochloride]",
    "value.reported": 1
  },
  {
    "compound": "Cl.NCC(=O)CCC(=O)OCCCCCCCCCCCCCCCC(=O)O [Compound 15]",
    "value.reported": 0.1
  },
  {
    "compound": "NCC(=O)CCC(=O)OCCCCCCCC(=O)O [Compound 10, hydrochloride]",
    "value.reported": 1
  },
  {
    "compound": "NCC(=O)CCC(=O)OCCCCCCCCCCCC(=O)O [Compound 14, hydrochloride]",
    "value.reported": 0.1
  }
]
